For each entry below, report its IC50 value.
target: Human immunodeficiency virus type 1 reverse transcriptase (Human immunodeficiency virus 1, UniProt Q72547, P236L); test: Inhibitory activity against HIV-1 Mutant Reverse transcriptase P236L
One number for each entry, in nM.

Compound Structure | IC50 / nM
CCN1c2ncc(CCc3cccc(N)c3)cc2C(=O)N(C)c2ccc(Cl)nc21 | 40

Shifting focus to the compound that follows.
Query `CCN1c2ncc(CCc3ccncc3)cc2C(=O)N(C)c2ccc(F)nc21` yields IC50 of 50

====

target: Human immunodeficiency virus type 1 reverse transcriptase (Human immunodeficiency virus 1, UniProt Q72547, K103N); experiment: Inhibitory activity against HIV-1 Mutant Reverse transcriptase K103N
Endpoint: IC50

Compound Structure | IC50
CCN1c2ncc(CCc3ccncc3)cc2C(=O)N(C)c2ccc(F)nc21 | 20 nM

Shift focus to the following entry.
The value of IC50 measured for the molecule `CCN1c2ncc(CCc3cccc(N)c3)cc2C(=O)N(C)c2ccc(Cl)nc21` turned out to be 10 nM

This collection of values is drawn from ChEMBL document CHEMBL1131047.
